Origin of measurements: paper PMC8190142

- experimentalTarget: PARP2 FL R153A (human (Homo sapiens), UniProt Q9UGN5 1-583, R153A)
- Sequence (Q9UGN5 whole entry R153A): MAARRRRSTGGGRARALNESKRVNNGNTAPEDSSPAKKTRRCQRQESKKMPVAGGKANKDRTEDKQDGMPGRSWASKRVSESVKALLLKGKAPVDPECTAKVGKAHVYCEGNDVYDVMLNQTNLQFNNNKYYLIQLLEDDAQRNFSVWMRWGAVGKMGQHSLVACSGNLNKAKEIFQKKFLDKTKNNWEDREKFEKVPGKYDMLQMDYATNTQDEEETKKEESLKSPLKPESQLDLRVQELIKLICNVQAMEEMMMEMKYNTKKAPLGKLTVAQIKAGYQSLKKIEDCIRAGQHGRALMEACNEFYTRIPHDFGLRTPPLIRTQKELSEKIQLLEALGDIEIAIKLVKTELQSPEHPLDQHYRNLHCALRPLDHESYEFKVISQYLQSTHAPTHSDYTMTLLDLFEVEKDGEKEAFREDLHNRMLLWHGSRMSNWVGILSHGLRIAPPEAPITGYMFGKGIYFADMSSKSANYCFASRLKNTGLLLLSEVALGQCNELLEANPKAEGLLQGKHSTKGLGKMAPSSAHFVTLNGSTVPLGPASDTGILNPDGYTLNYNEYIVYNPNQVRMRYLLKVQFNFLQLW
- assay: fluorescence polarization; mean and SD of 3 listed KDs (20.13, 10.37, 8.203); FP buffer, salt, pH and temperature not given (as in cited ref 17); crystallization: complex purified in 20 mM Hepes pH 7.5, 300 mM NaCl, 0.5 mM TCEP; crystals
- conditionParameters: protein: recombinant; tags: His-tag construct, TEV cleaved; label: fluorescein on internal T10; dumbbell of two hairpins (TTTT loops) with one nick
measuredProperty: Kd (nM)
Numbers only, in nM.

// query // lookup Kd for GGAAGTCTTTTGACTTCCTCGAAGCTTTTGCTTCGA (structured_DNA, 5'-phosphate) [DNA-8 nicked dumbbell]
// result 12.9
